What % Inhibition (Single Point Data) was measured for each of the following?
- test.system: Human Cav3.1 calcium channel (Homo sapiens)
- Construct: expressed in transfected cells; host or cells: HEK-293 natClytin/TASK1+Cav3.1 cell line
- Sequence (O43497 whole entry): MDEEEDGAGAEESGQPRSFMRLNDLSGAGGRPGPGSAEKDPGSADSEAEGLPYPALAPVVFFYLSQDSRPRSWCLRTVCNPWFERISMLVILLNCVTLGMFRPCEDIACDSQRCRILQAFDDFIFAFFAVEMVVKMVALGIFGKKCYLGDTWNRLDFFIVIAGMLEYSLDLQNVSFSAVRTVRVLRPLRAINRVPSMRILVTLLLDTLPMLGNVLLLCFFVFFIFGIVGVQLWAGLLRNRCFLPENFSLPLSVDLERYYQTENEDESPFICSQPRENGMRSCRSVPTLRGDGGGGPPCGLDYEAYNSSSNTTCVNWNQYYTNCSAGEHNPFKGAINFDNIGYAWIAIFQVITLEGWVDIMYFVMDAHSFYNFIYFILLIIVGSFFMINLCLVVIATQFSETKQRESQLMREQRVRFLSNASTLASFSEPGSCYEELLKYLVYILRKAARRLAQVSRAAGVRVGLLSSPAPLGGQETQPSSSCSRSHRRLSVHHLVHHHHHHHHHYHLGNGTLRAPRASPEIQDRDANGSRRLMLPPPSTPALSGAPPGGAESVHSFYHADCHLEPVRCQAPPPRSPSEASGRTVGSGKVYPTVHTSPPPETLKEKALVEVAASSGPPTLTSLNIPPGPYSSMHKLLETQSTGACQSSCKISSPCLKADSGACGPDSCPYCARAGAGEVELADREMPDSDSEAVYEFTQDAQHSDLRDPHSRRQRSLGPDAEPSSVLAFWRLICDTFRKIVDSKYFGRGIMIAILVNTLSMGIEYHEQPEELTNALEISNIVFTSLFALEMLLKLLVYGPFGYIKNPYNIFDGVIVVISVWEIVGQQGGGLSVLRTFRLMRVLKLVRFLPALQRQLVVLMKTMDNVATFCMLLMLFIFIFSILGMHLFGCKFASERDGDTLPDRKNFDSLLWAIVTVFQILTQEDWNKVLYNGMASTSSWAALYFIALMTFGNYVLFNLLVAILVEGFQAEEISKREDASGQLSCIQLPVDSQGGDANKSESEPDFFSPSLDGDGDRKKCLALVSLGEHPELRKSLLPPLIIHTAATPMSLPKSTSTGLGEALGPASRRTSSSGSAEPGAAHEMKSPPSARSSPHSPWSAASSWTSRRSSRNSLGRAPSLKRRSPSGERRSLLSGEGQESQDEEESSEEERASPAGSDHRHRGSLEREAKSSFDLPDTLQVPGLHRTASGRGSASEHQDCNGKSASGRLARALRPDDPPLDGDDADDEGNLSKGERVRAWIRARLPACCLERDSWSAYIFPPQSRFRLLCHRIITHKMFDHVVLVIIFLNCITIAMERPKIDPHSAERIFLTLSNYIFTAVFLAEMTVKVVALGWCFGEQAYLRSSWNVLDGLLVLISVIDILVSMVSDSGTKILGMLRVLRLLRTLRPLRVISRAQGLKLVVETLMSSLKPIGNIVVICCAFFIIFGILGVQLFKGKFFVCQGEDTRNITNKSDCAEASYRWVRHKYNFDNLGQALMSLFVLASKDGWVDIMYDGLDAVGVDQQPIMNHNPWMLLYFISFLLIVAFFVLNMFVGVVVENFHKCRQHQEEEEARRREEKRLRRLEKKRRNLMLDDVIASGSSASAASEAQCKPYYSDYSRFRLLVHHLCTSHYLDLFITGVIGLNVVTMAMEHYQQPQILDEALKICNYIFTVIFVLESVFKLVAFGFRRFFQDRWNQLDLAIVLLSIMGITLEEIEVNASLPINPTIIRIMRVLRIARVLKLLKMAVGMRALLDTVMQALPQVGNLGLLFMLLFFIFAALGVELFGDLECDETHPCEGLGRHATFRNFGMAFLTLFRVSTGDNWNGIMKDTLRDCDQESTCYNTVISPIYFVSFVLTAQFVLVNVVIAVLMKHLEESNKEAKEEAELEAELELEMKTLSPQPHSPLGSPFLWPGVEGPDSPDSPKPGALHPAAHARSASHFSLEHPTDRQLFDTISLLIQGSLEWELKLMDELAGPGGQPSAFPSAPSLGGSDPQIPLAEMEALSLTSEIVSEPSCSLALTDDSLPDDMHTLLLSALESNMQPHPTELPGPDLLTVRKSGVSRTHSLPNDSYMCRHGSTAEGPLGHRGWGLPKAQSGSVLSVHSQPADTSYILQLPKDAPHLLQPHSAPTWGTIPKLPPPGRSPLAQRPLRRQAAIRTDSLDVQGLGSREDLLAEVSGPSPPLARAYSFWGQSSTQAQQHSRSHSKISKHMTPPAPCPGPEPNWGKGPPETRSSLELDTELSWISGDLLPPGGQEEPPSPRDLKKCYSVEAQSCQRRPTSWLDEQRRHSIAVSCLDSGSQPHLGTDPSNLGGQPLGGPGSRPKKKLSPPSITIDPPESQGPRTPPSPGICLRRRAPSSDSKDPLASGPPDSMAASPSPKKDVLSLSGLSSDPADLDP
- assay.remarks: Human Cav3.1 calcium channel patch clamp assay (SyncroPatch 384PE; single point and IC50, voltage dependent block)
- Type: cell-based
- condition.context: Testing Conc 1.25; HEK-293 natClytin/TASK1+Cav3.1 cell line, patch clamp
Write the value in % as a bare number.

Entry under review: CC(C)(C)NC(=O)CN1C[C@@H]2C[C@H]1CN2CC(=O)NC12CC3CC(CC(O)(C3)C1)C2 [Compound 312] . Reported % Inhibition (Single Point Data)?
4.6566

Entry under review: CC(C)(C)NC(=O)CN1C2CC1CN(CC(=O)NC13CC4CC(CC(C4)C1)C3)C2 [Compound 258] . Reported % Inhibition (Single Point Data)?
91.927

Entry under review: O=C(CN1C[C@H]2C[C@@H]1CN2CC(=O)NC1(C(F)(F)F)CC1)Nc1cc(F)cc(Cl)c1 [Compound 20] . Reported % Inhibition (Single Point Data)?
56.816

Entry under review: COC1(CCN2C3CCC2CN(Cc2nc4c(Cl)cc(F)cc4[nH]2)C3)CCCC1 [Compound 89] . Reported % Inhibition (Single Point Data)?
98.148

Entry under review: Cc1ccc2ccnc(NCC3CCN(CC(=O)NC(C)(C)C)CC3)c2n1 [Compound 102] . Reported % Inhibition (Single Point Data)?
25.803

Entry under review: CC(C)(C)CCN1C2CCC1CN(Cc1nc3c(Cl)cc(F)cc3[nH]1)C2 [Compound 77] . Reported % Inhibition (Single Point Data)?
100.45

Entry under review: CC1(C)CC(CN2C3CC2CN(CC(=O)NC24CC5CC(CC(C5)C2)C4)C3)CCO1 (centres unmarked) [Compound 299] . Reported % Inhibition (Single Point Data)?
43.196

Entry under review: CC(c1nc2c(Cl)cc(F)cc2[nH]1)N1CC2CC(C1)N2CC(=O)NC(C)(C)C (centres unmarked) [Compound 200] . Reported % Inhibition (Single Point Data)?
93.175

Entry under review: O=C(CN1C[C@@H]2C[C@H]1CN2CC(=O)NC1(C(F)(F)F)COC1)NC12CC3CC(CC(C3)C1)C2 [Compound 319] . Reported % Inhibition (Single Point Data)?
23.628

Entry under review: CC1(C)CC(CN2C3CC2CN(Cc2nc4c(Cl)cc(F)cc4[nH]2)C3)CCO1 (centres unmarked) [Compound 112] . Reported % Inhibition (Single Point Data)?
82.988

Entry under review: O=C(CN1CC2CC1CN2CCNC(=O)C1(C(F)(F)F)CCC1)Nc1cc(F)cc(Cl)c1 (centres unmarked) [Compound 228] . Reported % Inhibition (Single Point Data)?
87.61

Entry under review: CC(C)(C)NC(=O)CN1C[C@@H]2C[C@H]1CN2CC(=O)Nc1ccc(F)c(Cl)c1 [Compound 23] . Reported % Inhibition (Single Point Data)?
91.472

Entry under review: CC(C)(C)OC(=O)CN1C2CC1CN(Cc1nc3c(Cl)cc(F)cc3[nH]1)C2 [Compound 139] . Reported % Inhibition (Single Point Data)?
92.564

Entry under review: CC(C)(C)NC(=O)CN1C[C@@H]2C[C@H]1CN2CC(=O)Nc1ccc(F)c(OC(F)F)c1 [Compound 247] . Reported % Inhibition (Single Point Data)?
97.344

Entry under review: Cc1cccc2[nH]c(CN3CC4CCC(C3)N4CC(=O)NC(C)(C)C)nc12 [Compound 194] . Reported % Inhibition (Single Point Data)?
97.438

Entry under review: O=C(CN1C2CC1CN(Cc1nc3c(Cl)cc(F)cc3[nH]1)C2)NC1(C(F)(F)F)COC1 [Compound 182] . Reported % Inhibition (Single Point Data)?
92.993

Entry under review: COc1cc(NC(=O)CN2C[C@@H]3C[C@H]2CN3CC(=O)NC(C)(C)C)ccc1Cl [Compound 337] . Reported % Inhibition (Single Point Data)?
95.366

Entry under review: CC1(C)CC(CN2C[C@@H]3C[C@H]2CN3CC(=O)NC23CC4CC(CC(C4)C2)C3)CCO1 (some centres unmarked) [Compound 298] . Reported % Inhibition (Single Point Data)?
26.791

Entry under review: O=C(NCCN1C2CC1CN(Cc1nc3c(Cl)cc(F)cc3[nH]1)C2)C1(C(F)(F)F)CCC1 [Compound 138] . Reported % Inhibition (Single Point Data)?
98.457

Entry under review: CC(C)(NC(=O)CN1CC2CC1CN2CC(=O)Nc1ccc(F)c(Cl)c1)C(F)(F)F (centres unmarked) [Compound 235] . Reported % Inhibition (Single Point Data)?
92.093
